# system_under_test: T1, RBFOX1 RRM RbFoxmut (Fox-RRM*) (Homo sapiens, UniProt Q9NWB1 109-208, R118D;E147R;N151S;E152T)
# T1 sequence: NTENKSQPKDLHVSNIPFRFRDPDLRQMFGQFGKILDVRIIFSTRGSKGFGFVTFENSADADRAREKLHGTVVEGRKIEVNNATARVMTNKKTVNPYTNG
# assay_summary: EMSA; HiTS-Eq, 1 nM pool, 10 min; buffer printed only for the single-RNA assays: 10 mM Tris pH 7.5, 150 mM NaCl, 3.4 mM EDTA, 0.001% NP-40, 30 C
# conditions_used: tags: His6 N-terminal (pET28a); label: 5' 32P
Whole data set: some 16,000 sequences, median “ka relative to ugcaugu” near 0.096, cut for the highest 2% near 0.35. This excerpt belongs to a sample that is enriched for the highest values.
measurement_name: binding signal

Would you please look over these solved cases?
binder: UUAAAUG (DNA:RNA) RNA: GGGAGACCGGAAUUCAGAUUGUCCUUAAAUGUUAAAUCCCGUCGUAGCCACCA DNA 1: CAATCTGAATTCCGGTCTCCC DNA 2: TGGTGGCTACGACGGGATT
reported_measurement: 0.0888 KA relative to UGCAUGU
--
binder: UUGAAUC (DNA:RNA) RNA: GGGAGACCGGAAUUCAGAUUGUCCUUGAAUCUUAAAUCCCGUCGUAGCCACCA DNA 1: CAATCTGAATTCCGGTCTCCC DNA 2: TGGTGGCTACGACGGGATT
reported_measurement: 0.374 KA relative to UGCAUGU
--
binder: UUGAUCC (DNA:RNA) RNA: GGGAGACCGGAAUUCAGAUUGUCCUUGAUCCUUAAAUCCCGUCGUAGCCACCA DNA 1: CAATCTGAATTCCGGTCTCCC DNA 2: TGGTGGCTACGACGGGATT
reported_measurement: 0.0834 KA relative to UGCAUGU
--
binder: GGUAUGA (DNA:RNA) RNA: GGGAGACCGGAAUUCAGAUUGUCCGGUAUGAUUAAAUCCCGUCGUAGCCACCA DNA 1: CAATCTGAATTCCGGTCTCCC DNA 2: TGGTGGCTACGACGGGATT
reported_measurement: 0.468 KA relative to UGCAUGU

Give one value of binding signal per listed binder.
1. UUGAAAU (DNA:RNA) RNA: GGGAGACCGGAAUUCAGAUUGUCCUUGAAAUUUAAAUCCCGUCGUAGCCACCA DNA 1: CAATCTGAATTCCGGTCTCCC DNA 2: TGGTGGCTACGACGGGATT
2. UUAAAUC (DNA:RNA) RNA: GGGAGACCGGAAUUCAGAUUGUCCUUAAAUCUUAAAUCCCGUCGUAGCCACCA DNA 1: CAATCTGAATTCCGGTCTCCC DNA 2: TGGTGGCTACGACGGGATT
3. UUGAAUG (DNA:RNA) RNA: GGGAGACCGGAAUUCAGAUUGUCCUUGAAUGUUAAAUCCCGUCGUAGCCACCA DNA 1: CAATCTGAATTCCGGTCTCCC DNA 2: TGGTGGCTACGACGGGATT
4. AUUGUAA (DNA:RNA) RNA: GGGAGACCGGAAUUCAGAUUGUCCAUUGUAAUUAAAUCCCGUCGUAGCCACCA DNA 1: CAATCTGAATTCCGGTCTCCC DNA 2: TGGTGGCTACGACGGGATT
5. UUGUUGA (DNA:RNA) RNA: GGGAGACCGGAAUUCAGAUUGUCCUUGUUGAUUAAAUCCCGUCGUAGCCACCA DNA 1: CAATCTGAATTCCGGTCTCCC DNA 2: TGGTGGCTACGACGGGATT

1. 0.0963 KA relative to UGCAUGU
2. 0.0555 KA relative to UGCAUGU
3. 1.17 KA relative to UGCAUGU
4. 0.154 KA relative to UGCAUGU
5. 0.0998 KA relative to UGCAUGU
